# measured_target: furin, P09958;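 also: purified furin at 1:10 enzyme:substrate in 50 mM HEPES pH 7.5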
# Sequence (P09958 whole entry): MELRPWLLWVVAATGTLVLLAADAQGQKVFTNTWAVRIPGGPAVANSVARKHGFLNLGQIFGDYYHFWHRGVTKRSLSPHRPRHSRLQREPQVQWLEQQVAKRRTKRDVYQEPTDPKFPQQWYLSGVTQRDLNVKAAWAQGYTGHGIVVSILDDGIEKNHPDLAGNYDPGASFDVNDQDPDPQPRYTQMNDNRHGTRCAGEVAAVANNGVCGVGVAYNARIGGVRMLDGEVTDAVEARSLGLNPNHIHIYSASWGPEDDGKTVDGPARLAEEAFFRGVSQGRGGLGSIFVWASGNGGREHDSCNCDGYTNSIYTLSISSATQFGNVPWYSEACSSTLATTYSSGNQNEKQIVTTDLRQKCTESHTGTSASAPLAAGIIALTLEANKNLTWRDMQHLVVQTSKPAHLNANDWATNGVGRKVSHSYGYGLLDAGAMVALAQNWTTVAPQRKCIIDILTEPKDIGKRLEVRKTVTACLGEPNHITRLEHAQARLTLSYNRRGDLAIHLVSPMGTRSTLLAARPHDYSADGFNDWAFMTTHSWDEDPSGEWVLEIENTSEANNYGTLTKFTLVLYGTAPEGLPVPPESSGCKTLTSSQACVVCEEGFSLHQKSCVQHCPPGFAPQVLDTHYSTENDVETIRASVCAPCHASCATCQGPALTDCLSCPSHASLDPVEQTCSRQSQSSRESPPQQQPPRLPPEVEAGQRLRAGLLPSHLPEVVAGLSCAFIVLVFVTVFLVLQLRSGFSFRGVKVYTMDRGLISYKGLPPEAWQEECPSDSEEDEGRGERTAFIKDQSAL
# experiment_summary: furin cleavage Z-score vs untreated control; higher = more cleavage, active = 3.5 or more, inactive = 1 or less, 8 variable residues between constant flanks
# experimental_context: 7.5 min
Some of the results follow. The hit rate among all sequences tested is not known here.
Just give me one of these, please: y for active, n for inactive

For orientation, consider the following solved cases.
1. CASTPCSAHTAGNASASA [HC2578] ... n
2. CANQRRNKREAGNASASA [FS-279] ... y
3. CAQAETAGARAGNASASA [HC828] ... n

Prompt line: Per the records of this test, what outcome belongs to CATTVCSGSWAGNASASA [HC1870] ?
Response line: n

Prompt line: Per the records of this test, what outcome belongs to CAEYRRRGRSAGNASASA [FS-1123] ?
Response line: y

Prompt line: Per the records of this test, what outcome belongs to CAEVVTDTWVAGNASASA [HC152] ?
Response line: n

Prompt line: Per the records of this test, what outcome belongs to CAEVPCHRPCAGNASASA [HC2420] ?
Response line: n
